- subjectOfTest: T1, Clostridium difficile toxin B (whole toxin B) (Clostridium difficile)
- T1 construct: also called TcdB; tcdB
- experimentSummary: biolayer interferometry (Octet QKe); biotinylated antibody on streptavidin sensor, toxin B 50-0.78 nM
measure: koff (s⁻¹)
Report as a plain number; the unit s⁻¹ is understood.

Can you look up the measured koff of CAN46G24 (antibody, V domains shown, also called CAN46G24-2-3; murine CAN46G24) VH: EVQLLQSGPELVKPGTSVKISCKASGYSFTGYYIHWVKQTHVKSLEWVGRIFPYNGAASYNQNFKGKATLTVDKSSSTAYMELHSLTSEDSAVYFCARWLRVYFDYWGQGTTLTVSS VL: EIVLTQSPAIMSTSPGEKVTMSCSASSSVTYMHWYQQKSITSPKLWIYETSKLASGVPGRFSGSGSGNSYSLTISSMEAEDVATYYCFQGSGYPFTFGSGTKLEIK for me? 0.00028
